Assay: MicroPET distribution of [^18F]-GA after PG polysaccharides intervention
Format: in vivo, mice
Conditions: male, Kunming, mouse, lungs, po, mice, PG polysaccharides orally 1 h before [^18F]-GA, Time(s) 5100; read-out: %ID/g of [^18F]-GA in the lungs, OA
Method: The mice were grouped by weight and housed in cages of the climate control room (25°C), with a photoperiod 12:12-h. During feeding, mice were free to access food and water. Mice were fasted for 24 h before the experiment. The mice were anesthetized with 4% isoflurane while preparing for scanning ([Constantinescu et al., 2013b]; [Cui et al., 2017]). […]
assay metric: tissue uptake at 1 h (%ID/g)

1) CC1(C)[C@@H](O)CC[C@]2(C)[C@H]3C(=O)C=C4[C@@H]5C[C@@](C)(C(=O)NCCCC[18F])CC[C@]5(C)CC[C@@]4(C)[C@]3(C)CC[C@@H]12 [[^18F]-GA, [^18F]-Glycyrrhetinic acid] = 2.96

----------
experiment: MicroPET distribution of [^18F]-GA after PG polysaccharides intervention; type: in vivo, mice; conditions: male, Kunming, mouse, lungs, intravenous, mice, control group, Time(s) 900; read-out: %ID/g of [^18F]-GA in the lungs, Con
assay metric: tissue uptake at 900 s

1) CC1(C)[C@@H](O)CC[C@]2(C)[C@H]3C(=O)C=C4[C@@H]5C[C@@](C)(C(=O)NCCCC[18F])CC[C@]5(C)CC[C@@]4(C)[C@]3(C)CC[C@@H]12 [[^18F]-GA, [^18F]-Glycyrrhetinic acid] = 2.15 %ID/g

----------
test: MicroPET distribution of [^18F]-GA after PG polysaccharides intervention; format: in vivo, mice; conditions: male, Kunming, mouse, lungs, po, mice, PG polysaccharides orally 1 h before [^18F]-GA, Time(s) 2250; read-out: %ID/g of [^18F]-GA in the lungs, OA
assay metric: tissue uptake at 1 h (%ID/g)

1. CC1(C)[C@@H](O)CC[C@]2(C)[C@H]3C(=O)C=C4[C@@H]5C[C@@](C)(C(=O)NCCCC[18F])CC[C@]5(C)CC[C@@]4(C)[C@]3(C)CC[C@@H]12 [[^18F]-GA, [^18F]-Glycyrrhetinic acid] = 3.79

----------
test: MicroPET distribution of [^18F]-GA after PG polysaccharides intervention; assay type: in vivo, mice; settings: male, Kunming, mouse, lungs, intravenous, mice, control group, Time(s) 2250; read-out: %ID/g of [^18F]-GA in the lungs, Con
assay metric: tissue uptake at 2250 s (%ID/g)

1) CC1(C)[C@@H](O)CC[C@]2(C)[C@H]3C(=O)C=C4[C@@H]5C[C@@](C)(C(=O)NCCCC[18F])CC[C@]5(C)CC[C@@]4(C)[C@]3(C)CC[C@@H]12 [[^18F]-GA, [^18F]-Glycyrrhetinic acid] = 1.51

----------
assay: MicroPET distribution of [^18F]-GA after PG polysaccharides intervention; type: in vivo, mice; details: male, Kunming, mouse, lungs, po, mice, PG polysaccharides orally for 7 days, Time(s) 540; read-out: %ID/g of [^18F]-GA in the lungs, LA
assay metric: tissue uptake at 168 h (%ID/g)

1. CC1(C)[C@@H](O)CC[C@]2(C)[C@H]3C(=O)C=C4[C@@H]5C[C@@](C)(C(=O)NCCCC[18F])CC[C@]5(C)CC[C@@]4(C)[C@]3(C)CC[C@@H]12 [[^18F]-GA, [^18F]-Glycyrrhetinic acid] = 2.85

----------
assay: MicroPET distribution of [^18F]-GA after PG polysaccharides intervention; type: in vivo, mice; details: male, Kunming, mouse, lungs, po, mice, PG polysaccharides orally 1 h before [^18F]-GA, Time(s) 900; read-out: %ID/g of [^18F]-GA in the lungs, OA
assay metric: tissue uptake at 1 h (%ID/g)

1) CC1(C)[C@@H](O)CC[C@]2(C)[C@H]3C(=O)C=C4[C@@H]5C[C@@](C)(C(=O)NCCCC[18F])CC[C@]5(C)CC[C@@]4(C)[C@]3(C)CC[C@@H]12 [[^18F]-GA, [^18F]-Glycyrrhetinic acid] = 4.53

----------
Assay: MicroPET distribution of [^18F]-GA after PG polysaccharides intervention
Assay type: in vivo, mice
Details: male, Kunming, mouse, lungs, intravenous, mice, control group, Time(s) 4500; read-out: %ID/g of [^18F]-GA in the lungs, Con
Procedure: The mice were grouped by weight and housed in cages of the climate control room (25°C), with a photoperiod 12:12-h. During feeding, mice were free to access food and water. Mice were fasted for 24 h before the experiment. The mice were anesthetized with 4% isoflurane while preparing for scanning ([Constantinescu et al., 2013b]; [Cui et al., 2017]). […]
assay metric: tissue uptake at 4500 s (%ID/g)

1. CC1(C)[C@@H](O)CC[C@]2(C)[C@H]3C(=O)C=C4[C@@H]5C[C@@](C)(C(=O)NCCCC[18F])CC[C@]5(C)CC[C@@]4(C)[C@]3(C)CC[C@@H]12 [[^18F]-GA, [^18F]-Glycyrrhetinic acid] = 1.05

----------
test: MicroPET distribution of [^18F]-GA after PG polysaccharides intervention; format: in vivo, mice; details: male, Kunming, mouse, lungs, intravenous, mice, control group, Time(s) 780; read-out: %ID/g of [^18F]-GA in the lungs, Con
assay metric: tissue uptake at 780 s (%ID/g)

1) CC1(C)[C@@H](O)CC[C@]2(C)[C@H]3C(=O)C=C4[C@@H]5C[C@@](C)(C(=O)NCCCC[18F])CC[C@]5(C)CC[C@@]4(C)[C@]3(C)CC[C@@H]12 [[^18F]-GA, [^18F]-Glycyrrhetinic acid] = 2.1

----------
assay: MicroPET distribution of [^18F]-GA after PG polysaccharides intervention; assay type: in vivo, mice; settings: male, Kunming, mouse, lungs, po, mice, PG polysaccharides orally for 7 days, Time(s) 780; read-out: %ID/g of [^18F]-GA in the lungs, LA
assay metric: tissue uptake at 168 h (%ID/g)

1) CC1(C)[C@@H](O)CC[C@]2(C)[C@H]3C(=O)C=C4[C@@H]5C[C@@](C)(C(=O)NCCCC[18F])CC[C@]5(C)CC[C@@]4(C)[C@]3(C)CC[C@@H]12 [[^18F]-GA, [^18F]-Glycyrrhetinic acid] = 2.51

----------
assay: MicroPET distribution of [^18F]-GA after PG polysaccharides intervention; format: in vivo, mice; conditions: male, Kunming, mouse, lungs, po, mice, PG polysaccharides orally for 7 days, Time(s) 420; read-out: %ID/g of [^18F]-GA in the lungs, LA
assay metric: tissue uptake at 168 h (%ID/g)

1. CC1(C)[C@@H](O)CC[C@]2(C)[C@H]3C(=O)C=C4[C@@H]5C[C@@](C)(C(=O)NCCCC[18F])CC[C@]5(C)CC[C@@]4(C)[C@]3(C)CC[C@@H]12 [[^18F]-GA, [^18F]-Glycyrrhetinic acid] = 3.15

----------
assay: MicroPET distribution of [^18F]-GA after PG polysaccharides intervention; assay type: in vivo, mice; conditions: male, Kunming, mouse, lungs, intravenous, mice, control group, Time(s) 6300; read-out: %ID/g of [^18F]-GA in the lungs, Con
assay metric: tissue uptake at 6300 s

1) CC1(C)[C@@H](O)CC[C@]2(C)[C@H]3C(=O)C=C4[C@@H]5C[C@@](C)(C(=O)NCCCC[18F])CC[C@]5(C)CC[C@@]4(C)[C@]3(C)CC[C@@H]12 [[^18F]-GA, [^18F]-Glycyrrhetinic acid] = 0.97 %ID/g

----------
Assay: MicroPET distribution of [^18F]-GA after PG polysaccharides intervention
Format: in vivo, mice
Settings: male, Kunming, mouse, lungs, po, mice, PG polysaccharides orally for 7 days, Time(s) 1350; read-out: %ID/g of [^18F]-GA in the lungs, LA
Method: The mice were grouped by weight and housed in cages of the climate control room (25°C), with a photoperiod 12:12-h. During feeding, mice were free to access food and water. Mice were fasted for 24 h before the experiment. The mice were anesthetized with 4% isoflurane while preparing for scanning ([Constantinescu et al., 2013b]; [Cui et al., 2017]). […]
assay metric: tissue uptake at 168 h (%ID/g)

1. CC1(C)[C@@H](O)CC[C@]2(C)[C@H]3C(=O)C=C4[C@@H]5C[C@@](C)(C(=O)NCCCC[18F])CC[C@]5(C)CC[C@@]4(C)[C@]3(C)CC[C@@H]12 [[^18F]-GA, [^18F]-Glycyrrhetinic acid] = 2.16

----------
assay: MicroPET distribution of [^18F]-GA after PG polysaccharides intervention; format: in vivo, mice; details: male, Kunming, mouse, lungs, po, mice, PG polysaccharides orally 1 h before [^18F]-GA, Time(s) 1350; read-out: %ID/g of [^18F]-GA in the lungs, OA
assay metric: tissue uptake at 1 h (%ID/g)

1. CC1(C)[C@@H](O)CC[C@]2(C)[C@H]3C(=O)C=C4[C@@H]5C[C@@](C)(C(=O)NCCCC[18F])CC[C@]5(C)CC[C@@]4(C)[C@]3(C)CC[C@@H]12 [[^18F]-GA, [^18F]-Glycyrrhetinic acid] = 4.17

Origin of the recorded values: paper PMC6110851
